Target: T1, murine GPC3-his protein (Sino Biological, Cat. No. 50989-M08B) (murine, UniProt Q8CFZ4 25-558)
T1 construct: Bought protein; also called murine GPC3 protein
T1 sequence (Q8CFZ4 25-558 limits assumed): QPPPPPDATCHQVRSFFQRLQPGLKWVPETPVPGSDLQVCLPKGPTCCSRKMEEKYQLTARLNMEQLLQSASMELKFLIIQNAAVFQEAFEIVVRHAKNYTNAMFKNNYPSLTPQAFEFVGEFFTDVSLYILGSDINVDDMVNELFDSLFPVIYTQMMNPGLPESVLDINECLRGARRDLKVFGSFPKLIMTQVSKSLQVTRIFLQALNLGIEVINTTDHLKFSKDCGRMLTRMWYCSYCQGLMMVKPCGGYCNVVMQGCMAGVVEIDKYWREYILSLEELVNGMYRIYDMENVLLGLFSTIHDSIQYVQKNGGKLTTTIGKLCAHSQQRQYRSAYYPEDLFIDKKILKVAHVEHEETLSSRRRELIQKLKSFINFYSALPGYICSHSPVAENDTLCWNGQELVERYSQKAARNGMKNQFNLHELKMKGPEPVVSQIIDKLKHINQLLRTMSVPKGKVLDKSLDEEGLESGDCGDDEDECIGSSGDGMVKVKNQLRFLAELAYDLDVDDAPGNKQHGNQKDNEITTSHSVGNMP
Experiment: ELISA, coated murine GPC3-His;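 further: antigen coated on plates at 1 µg/mL, test antibody bound for 2 h at 37 °C, detected with HRP-conjugated secondary antibody and TMB substrate after acid stop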
observable: OD450 at 0.0001 nM antibody (OD450 nm)
Provide only the numeric value, understood in OD450 nm.

F1.42.8 human-murine chimeric antibody (antibody, human IgG1, kappa, V domains shown) VH: HVQLQQPGAELVKPGASVKLSCKASGYTFTSYWMHWVRQRPGQGLEWIEMIHPNSGSTNYNEKFKSKATLTVDKSSSTAYMQLSSLTSEDSAVYYCARGNYNSSLYAMDYWGQGTSVTVSS VL: DIQMTQTTSSLSASLGDRVTISCSASQGISNYLNWYQQKPDGTVKLLIYYASNLHSGVPSRFSGSGSGTAYSLTISNLEPEDIATYYCQQYSILPYTFGGGTKLEIKR = 0.05
F1.3.9 human-murine chimeric antibody (antibody, human IgG1, kappa, V domains shown) VH: QVQLQQPGTELVKPGASVKLSCKASGYTFTSYWIHWVKQRPGQGLEWIGNINPPNAGTNYNEKFKSKATLTVDKSSSTAYMQLSSLTSEDSAVYYCARGRWLLHDYWGQGTTLTVSS VL: DIQMTQSPASLSISVGETVTITCRASENIYSNLAWYQQKQGKSPQLLVYGTKNLAEGVPSRFSGSGSGTQYSLKINSLQSEDFGNYYCQHFWGTPYTFGGGTKLEILR = 0.05

Task: Record request: OD450 at 0.0001 nM antibody value, item F2.152.3 human-murine chimeric antibody (antibody, human IgG1, kappa, V domains shown) VH: EVQLQQSGPELVKPGASVKMSCKASGYTFTDYYMTWVKQSHGKSLEWIGRVNPRNGDTTYNQKFEGRATLTLDKSLSTAFMQLNSLTSEDSAVYYCINSKGHFDYWGQGTTLTVSS VL: DVLMTQTPLSLPVSLGDQASISCRSSQSIVHSNGNTYLEWFLQKPGQSPKSLIYKVSNRFSGVPDRFSGSGSGTDFTLKISRVEAEDLGVYYCFQGSHVPPTFGAGTKLELKR
Result: 0.05
